Entries and their measured inhibition follow.
- Assayed Target: C-C chemokine receptor type 5 (Homo sapiens)
- Sequence (P51681 whole entry, looked up): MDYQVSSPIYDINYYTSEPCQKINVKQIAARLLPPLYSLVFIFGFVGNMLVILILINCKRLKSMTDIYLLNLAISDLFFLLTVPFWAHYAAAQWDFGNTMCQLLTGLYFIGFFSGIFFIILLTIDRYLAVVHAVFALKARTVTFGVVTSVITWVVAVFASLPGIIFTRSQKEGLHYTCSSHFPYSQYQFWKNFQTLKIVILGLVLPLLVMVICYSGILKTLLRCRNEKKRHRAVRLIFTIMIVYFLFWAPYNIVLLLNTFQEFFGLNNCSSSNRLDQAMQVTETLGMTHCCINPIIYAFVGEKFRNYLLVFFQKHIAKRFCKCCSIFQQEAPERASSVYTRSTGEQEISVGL
- Experimental Details: Antagonist activity at human TEV cleavage site-linked CCR5 expressed in human U2OS cells harboring beta-lactamase reporter gene assessed as inhibition of CCL3-induced beta-arrestin recruitment at 1 uM incubated for 30 mins followed by CCL3 stimulation and measured after 16 hrs by Tango assay relative to control
- Format: cell-based
Numbers only; they are read as %.

The examples below pair each entry with its known result.
Let me know recorded inhibition for Cc1nc2[nH]c(C3CC3)c(Cc3cccc(Cl)c3)c(=O)n2n1 , thanks.
35

Return the recorded inhibition value; entry: Nc1nc2[nH]c(C3CC3)c(Cc3ccc(Br)cc3)c(=O)n2n1
14

Provide inhibition value for the following compound: Nc1nc2[nH]c(C3CC3)c(Cc3cccc(I)c3)c(=O)n2n1
66

Using known records, supply inhibition for Nc1nc2[nH]c(C3CC3)c(Cc3ccc(F)cc3)c(=O)n2n1
31

Look up and report measured inhibition for this entry: Nc1nc2[nH]c(C3CC3)c(Cc3cccc(Br)c3)c(=O)n2n1
60

Further cases:
Give the reported value of inhibition for this record: CCC(CC)Cc1[nH]c2nc(N)nn2c(=O)c1Cc1cccc(Cl)c1
29
